Tested on: Escherichia coli TOP10;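 note: peptides expressed intracellularly from a pBAD plasmid library in pooled LB shake-flask culture, induced with 0.3% L-arabinose, DNA abundance read by NGS, three biological replicates, DESeq2 with apeglm shrinkage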
Test: shrunken log2 fold change of peptide-encoding DNA abundance (4.5 h post-induction vs induction); higher = less antimicrobial activity (less host growth inhibition)
Conditions: time post-induction: 4.5 h; library: site-saturation at positions 5, 18, 19, 20
I'd appreciate it if you could supply shrunken log2 fold change values for the items below.
One number for each entry.

| Chain sequence | Readout value |
| --- | --- |
| RRIRPRPPRLPRPRPRPKPCPRP | -0.044 |
| RRIRLRPPRLPRPRPRPLIQPRP | -0.247 |
| RRIRPRPPRLPRPRPRPEIMPRP | -0.0268 |
| RRIRSRPPRLPRPRPRPDSLPRP | 0.00187 |
| RRIRFRPPRLPRPRPRPRCCPRP | 0.164 |

Items follow; give shrunken log2 fold change for each.
1. RRIRARPPRLPRPRPRPSWKPRP
2. RRIRNRPPRLPRPRPRPNTVPRP
3. RRIRHRPPRLPRPRPRPRGWPRP
4. RRIRPRPPRLPRPRPRPWTAPRP
5. RRIRLRPPRLPRPRPRPRRMPRP
6. RRIRYRPPRLPRPRPRPGAEPRP
7. RRIRMRPPRLPRPRPRPDIKPRP

A)
1. 0.237
2. -0.409
3. 0.629
4. -0.305
5. 0.053
6. 0.227
7. 1.51
